# TARGET_ENTITY: hCMV UL130 and UL131A co-expressed in HEK293T cells (human cytomegalovirus, UniProt P16772 1-214)
# Sequence (P16772 whole entry): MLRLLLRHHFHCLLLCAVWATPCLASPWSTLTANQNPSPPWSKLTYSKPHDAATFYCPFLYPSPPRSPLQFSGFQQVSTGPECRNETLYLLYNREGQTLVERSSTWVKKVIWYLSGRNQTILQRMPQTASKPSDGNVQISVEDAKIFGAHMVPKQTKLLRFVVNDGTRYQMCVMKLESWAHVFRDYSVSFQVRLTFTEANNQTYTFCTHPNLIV
# EXPERIMENTAL_PROTOCOL: cell-based or functional assay
Kindly supply the reported 50% Neutralization MRC-9 (hCMV VR1814) values for the records listed here.

50% Neutralization MRC-9 (hCMV VR1814) in this record for 4N10 (antibody, V domains shown, human IgG mAb; also called 4N10-biotin) VH: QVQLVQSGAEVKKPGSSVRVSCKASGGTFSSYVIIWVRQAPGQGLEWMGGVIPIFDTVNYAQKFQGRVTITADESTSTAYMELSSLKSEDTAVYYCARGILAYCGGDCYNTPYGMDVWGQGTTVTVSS VL: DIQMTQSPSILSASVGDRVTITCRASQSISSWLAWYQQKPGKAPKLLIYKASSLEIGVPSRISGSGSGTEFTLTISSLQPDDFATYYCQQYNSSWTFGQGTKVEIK : ≤ 2 µg/mL

50% Neutralization MRC-9 (hCMV VR1814) in this record for 4I22 (antibody, V domains shown, human IgG mAb; also called 4I22-biotin) VH: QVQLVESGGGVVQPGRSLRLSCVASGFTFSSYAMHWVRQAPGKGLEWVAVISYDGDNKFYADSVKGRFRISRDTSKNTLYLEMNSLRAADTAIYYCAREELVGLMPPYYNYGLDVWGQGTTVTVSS VL: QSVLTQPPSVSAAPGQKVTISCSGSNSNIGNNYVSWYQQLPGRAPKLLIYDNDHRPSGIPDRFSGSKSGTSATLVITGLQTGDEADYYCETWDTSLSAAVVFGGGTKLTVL : > 2 µg/mL

50% Neutralization MRC-9 (hCMV VR1814) in this record for 10F7 (antibody, V domains shown, human IgG mAb; also called 10F7-biotin) VH: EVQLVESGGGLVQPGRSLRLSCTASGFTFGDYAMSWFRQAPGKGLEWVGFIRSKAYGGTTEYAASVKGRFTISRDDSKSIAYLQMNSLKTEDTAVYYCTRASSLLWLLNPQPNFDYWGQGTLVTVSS VL: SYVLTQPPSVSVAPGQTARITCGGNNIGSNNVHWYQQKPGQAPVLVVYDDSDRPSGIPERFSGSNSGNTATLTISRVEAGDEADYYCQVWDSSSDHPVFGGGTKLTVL : ≤ 2 µg/mL

50% Neutralization MRC-9 (hCMV VR1814) in this record for 8L13 (antibody, V domains shown, human IgG mAb) VH: QVQLLESGGGVVQPGRSLRLSCAASGFTFSNYGMHWVRQAPGKGLEWVAVIWNDGSKKYYAESVKGRFTISRDNSKNTVYLQMNSLRAEDTAVYYCARDEGVQMVFAMPDYGMDVWGQGTTVTVSS VL: SYELTQPPSVSVSPGQTASITCSGDKLGDKFACWYQQRPGQSPILVIYQDSKRPSGIPERFSGSNSGNTATLTIRGTQAMDEADYYCQAWDSSTAHYVFGTGTKVTVL : > 2 µg/mL
